# System: hiPSCs differentiating into neural rosette-like cells
# experimental-parameters: lineage call (positive/equivocal/negative)
property-name: ReproTracker results Neural rosette-like cells

These recorded examples may help you get a feel for the data.
INSERT INTO assay_data (compound, reported_result) VALUES
  ('CC(=O)CC(c1ccccc1)c1c(O)c2ccccc2oc1=O (stereo not drawn)', 'Negative'),
  ('[CH3][Hg][Cl]', 'Negative'),
  ('O=P1(N(CCCl)CCCl)NCCCO1 (stereo not drawn) [Cyclophosphamide]', 'Positive'),
  ('ClC1(Cl)C2(Cl)C3(Cl)C4(Cl)C(Cl)(Cl)C5(Cl)C3(Cl)C1(Cl)C5(Cl)C24Cl (stereo not drawn)', 'Positive'),
  ('Nc1cccc2c1CN(C1CCC(=O)NC1=O)C2=O (stereo not drawn) [Lenalidomide]', 'Negative');

Please state ReproTracker results Neural rosette-like cells for every compound in the list that follows.
1. Cc1ccc(Nc2nccc(N(C)c3ccc4c(C)n(C)nc4c3)n2)cc1S(N)(=O)=O
2. Nc1cccc2c1C(=O)N(C1CCC(=O)NC1=O)C2=O (stereo not drawn) [Pomalidomide]
3. COc1cc(C)c(/C=C/C(C)=C/C=C/C(C)=C/C(=O)O)c(C)c1C
4. CC(C)(C)c1nc(-c2cccc(NS(=O)(=O)c3c(F)cccc3F)c2F)c(-c2ccnc(N)n2)s1

1: Negative; 2: Positive; 3: Positive; 4: Positive
